This collection of values is drawn from patent US9624209B2.

- system-name: vanilloid receptor 1 (VR1/TRPV1 receptor) (Homo sapiens, UniProt Q8NER1)
- Construct: expressed in transfected cells; host or cells: CHO K1 cells (ECACC), stably transfected
- Sequence (Q8NER1 whole entry): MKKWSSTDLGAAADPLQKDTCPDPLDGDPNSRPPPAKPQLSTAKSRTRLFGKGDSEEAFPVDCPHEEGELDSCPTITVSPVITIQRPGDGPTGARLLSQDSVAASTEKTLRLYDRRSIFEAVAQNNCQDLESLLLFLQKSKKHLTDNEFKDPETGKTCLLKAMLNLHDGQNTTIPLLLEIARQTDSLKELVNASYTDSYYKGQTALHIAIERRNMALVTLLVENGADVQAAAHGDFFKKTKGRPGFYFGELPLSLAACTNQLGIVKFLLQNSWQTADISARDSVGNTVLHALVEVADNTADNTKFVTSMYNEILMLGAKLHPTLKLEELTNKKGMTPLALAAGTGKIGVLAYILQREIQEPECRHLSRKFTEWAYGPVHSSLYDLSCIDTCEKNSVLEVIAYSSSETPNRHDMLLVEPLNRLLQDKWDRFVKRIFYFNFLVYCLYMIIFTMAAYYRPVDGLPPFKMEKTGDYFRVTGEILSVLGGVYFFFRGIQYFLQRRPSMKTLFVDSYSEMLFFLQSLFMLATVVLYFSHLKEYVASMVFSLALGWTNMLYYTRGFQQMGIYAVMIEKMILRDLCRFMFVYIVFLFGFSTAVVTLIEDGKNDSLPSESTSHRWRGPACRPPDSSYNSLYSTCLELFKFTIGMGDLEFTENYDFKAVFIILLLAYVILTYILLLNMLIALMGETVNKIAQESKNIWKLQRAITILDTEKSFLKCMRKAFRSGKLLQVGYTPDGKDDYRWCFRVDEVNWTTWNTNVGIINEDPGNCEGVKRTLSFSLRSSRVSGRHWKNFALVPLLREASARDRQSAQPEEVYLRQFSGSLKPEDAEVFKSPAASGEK
- protocol-details: VR1/TRPV1 receptor affinity, capsaicin stimulus (human)
- Type: cell-based, human being
- protocol-conditions: Tables 8-12, read-out: (f) Ki (human being) [nM] Cap
Task for the reader: assign each of the following compounds its reported Ki.
One number for each entry, in nM.

CC(C)(C)c1cc(CNC(=O)Nc2ccc(CNS(C)(=O)=O)c(F)c2)n(-c2ccc(F)cc2)n1 :: 33
COc1cc(NC(=O)NCc2cc(C(F)(F)F)nn2-c2cccc(C)c2)ccc1CNS(C)(=O)=O :: 93
CS(=O)(=O)NCc1ccc(NC(=O)NCc2cc(C(F)(F)F)nn2-c2cccc(F)c2)cc1 :: 44

Respectfully, I request Ki for each entry included below.
1. NS(=O)(=O)NCc1ccc(NC(=O)NCc2cc(C(F)(F)F)nn2-c2cccc(F)c2)cc1F
2. CCS(=O)(=O)NCc1ccc(NC(=O)NCc2cc(C(F)(F)F)nn2-c2cccc(Cl)c2)cc1
3. COc1cccc(-n2nc(C(F)(F)F)cc2CNC(=O)Nc2ccc(CNS(C)(=O)=O)c(F)c2)c1
4. CC(C)(C)c1cc(CNC(=O)Nc2ccc(CNS(C)(=O)=O)cc2)n(-c2cccc(Cl)c2)n1
5. CNCc1ccc(C(C)C(=O)NCc2cc(C(C)(C)C)nn2-c2cccc(Cl)c2)cc1F (stereo not drawn)
6. NS(=O)(=O)NCc1ccc(NC(=O)NCc2cc(C(F)(F)F)nn2-c2ccc(F)c(Cl)c2)cc1F
7. Cc1cccc(-n2nc(C(C)(C)C)cc2CNC(=O)Nc2ccc(CNS(C)(=O)=O)cc2)c1

25
53
16
11
30
14
12

* * *

- system-name: vanilloid receptor 1 (VR1/TRPV1 receptor) (Homo sapiens)
- Construct: expressed in transfected cells; host or cells: CHO K1 cells (ECACC), stably transfected
- protocol-details: VR1/TRPV1 receptor affinity, capsaicin stimulus (human)
- Assay type: cell-based, human being
- protocol-conditions: Tables 8-12, read-out: (f) Ki (human being) [nM] Cap
Threshold 30 nM: Ki strictly smaller gives t, otherwise f.

CC(C)(C)c1cc(CNC(=O)Nc2ccc(CNS(C)(=O)=O)c(F)c2)n(-c2cccc(F)c2)n1 :: t
CC(C)(C)c1cc(CNC(=O)Nc2ccc(CNS(C)(=O)=O)c(F)c2)n(-c2ccc(F)c(F)c2)n1 :: t
Cc1cccc(-n2nc(C(F)(F)F)cc2CNC(=O)C(C)c2ccc(CNS(C)(=O)=O)c(F)c2)c1 (stereo not drawn) :: t
CC(C(=O)NCc1cc(C(F)(F)F)nn1-c1cccc(Cl)c1)c1ccc(CNS(N)(=O)=O)c(F)c1 (stereo not drawn) :: t
CC(C(=O)NCc1cc(C(F)(F)F)nn1-c1cccc(Cl)c1)c1cc(F)c(CO)c(F)c1 (stereo not drawn) :: f
NS(=O)(=O)NCc1ccc(NC(=O)NCc2cc(C(F)(F)F)nn2-c2ccc(F)c(F)c2)cc1 :: f
CC(C(=O)NCc1cc(C(F)(F)F)nn1-c1cccc(Cl)c1)c1ccc(C(N)=O)c(F)c1 (stereo not drawn) :: t
O=C(NCc1cc(C(F)(F)F)nn1-c1cccc(Cl)c1)Nc1ccc(N2CC(O)C2)c(F)c1 :: f
CC(C)(C)c1cc(CNC(=O)Nc2ccc(CNS(N)(=O)=O)c(F)c2)n(-c2cccc(F)c2)n1 :: t
CC(C(=O)NCc1cc(C(C)(C)C)nn1-c1ccc(F)c(Cl)c1)c1ccc(CNS(C)(=O)=O)c(F)c1 (stereo not drawn) :: t

Take the molecule CS(=O)(=O)NCc1ccc(NC(=O)NCc2cc(C(F)(F)F)nn2-c2cccc(Cl)c2)cc1 and say whether its Ki is less than 30 nM.
f

Take the molecule CC(C(=O)NCc1cc(C(F)(F)F)nn1-c1ccc(F)c(Cl)c1)c1ccc(CNS(C)(=O)=O)c(F)c1 (stereo not drawn) and say whether its Ki is less than 30 nM.
t

Take the molecule CS(=O)(=O)NCc1ccc(NC(=O)NCc2cc(C(F)(F)F)nn2-c2cccc(C(F)(F)F)c2)cc1F and say whether its Ki is less than 30 nM.
t

Take the molecule CC(C(=O)NCc1cc(C(C)(C)C)nn1-c1ccc(F)c(F)c1)c1ccc(CNS(C)(=O)=O)c(F)c1 (stereo not drawn) and say whether its Ki is less than 30 nM.
t

Take the molecule CC(C(=O)NCc1cc(C(F)(F)F)nn1-c1cccc(Cl)c1)c1ccc(S(C)(=O)=O)c(Cl)c1 (stereo not drawn) and say whether its Ki is less than 30 nM.
t
